- Tested on: MCF7 breast
- method_description: NCI tumour cell line growth inhibition, 48 h
measured_parameter: GI50

Provide one value: measured GI50 of Clc1nc(Cl)c2c3c(sc2n1)CCCC3
3560 nM

Provide one value: measured GI50 of Cc1[nH]c(C(=O)Nc2ccccc2OC2CCNCC2)c(Cl)c1Cl
882 nM

Provide one value: measured GI50 of COC(C(=O)C(O)C(C)O)C1Cc2cc3cc(OC4CC(OC5CC(O)C(O)C(C)O5)C(O)C(C)O4)c(C)c(O)c3c(O)c2C(=O)C1OC1CC(OC2CC(O)C(OC3CC(C)(O)C(O)C(C)O3)C(C)O2)C(O)C(C)O1 (centres undefined)
0.53 ng/mL

Provide one value: measured GI50 of CCCC[n+]1c(/C=C\c2c(OC)cc(OC)cc2OC)ccc2ccccc21
494 nM

###

- Test system: ACHN renal
- method_description: NCI tumour cell line growth inhibition, 48 h
measured_parameter: TGI

compound: C[N+](C)(CCCCCC[N+](C)(C)CCCN1C(=O)c2cc3ccccc3cc2C1=O)CCCN1C(=O)c2cc3ccccc3cc2C1=O
TGI: > 37.5 µM
--
compound: CCOc1ccc(/C(C=O)=C(\Cl)c2ccc(OC)c(OC)c2)cc1
TGI: > 100 µM
--
compound: C[C@]12CCC[C@H](O)[C@H]1C[C@H](CO)CC2
TGI: > 100 µM
--
compound: CC[C@@H](C(=O)[C@H](C)[C@H](O)[C@@H](C)[C@H]1O[C@H]([C@@H](CC)C(=O)O)CC[C@H]1C)C1O[C@]2(C=C[C@@H](O)[C@]3(CC[C@@](C)([C@H]4CC[C@](O)(CC)[C@H](C)O4)O3)O2)[C@H](C)C[C@@H]1C (some centres undefined)
TGI: 40.2 µM
--
compound: Cc1ccc(S(=O)(=O)N2c3ccccc3[C@H]3CCC=C[C@H]32)cc1
TGI: > 93.3 µM

Provide one value: measured TGI of COC1=CC(=O)c2c(cc(COP(=O)(OCC3OC(n4cc(F)c(=O)[nH]c4=O)CC3O)N(C)CCCCCl)n2C)C1=O (centres undefined)
> 100 µM

Provide one value: measured TGI of Cc1cc(=O)[nH]c2cc(NC(=O)C(CCCN=C(N)N)NC(=O)OCc3ccccc3)ccc12 (centres undefined)
> 100 µM

Provide one value: measured TGI of COc1ccc(-c2nnc3n(Cc4ccccc4)c4ccccc4n3c2=O)cc1
99.5 µM

Provide one value: measured TGI of O=C(NNCC(F)(F)F)c1ccncc1
> 100 µM

Provide one value: measured TGI of N#CCOc1ccc(/C=C/C(=O)c2ccc(Cl)cc2)cc1
> 100 µM

Provide one value: measured TGI of COC(=O)NC(=Nc1ccc(Oc2ccccc2)cc1NC=O)NC(=O)OC
> 100 µM

Provide one value: measured TGI of O=S1(=O)NC2CCC3NS(=O)(=O)NC4CCC(N1)N4S(=O)(=O)N23 (centres undefined)
> 100 µM

Provide one value: measured TGI of C/C(=N\NS(=O)(=O)c1ccc(C)cc1)c1cc2ccccc2n1C
> 100 µM

Provide one value: measured TGI of NCCCn1c2c(c3ccc([N+](=O)[O-])cc3c1=O)C(=O)c1cc(-c3ccccc3)ccc1-2
3.08 µM

Provide one value: measured TGI of COc1cc(/C=C2\Oc3cc(OCCCN4CCCC4)ccc3C2=O)cc(OC)c1
10.7 µM

Provide one value: measured TGI of COC(=O)C1(C(=O)OC)N=C(C)OC1c1ccccn1 (centres undefined)
> 100 µM

###

- Test system: UACC-257 melanoma
- method_description: NCI tumour cell line growth inhibition, 48 h
measured_parameter: TGI

Provide one value: measured TGI of COC(=O)C(CC(C)=O)CS(=O)(=O)CC(=O)C(=O)Nc1cccc([N+](=O)[O-])c1 (stereo not given)
> 100 µM

###

- System: 786-0 renal
- method_description: NCI tumour cell line growth inhibition, 48 h
Item-by-item account of TGI

Provide one value: measured TGI of CCCCCCCCCCCCCCCC(=O)N[C@H](/C=C/[C@H](O)CCCCCCCCCCCCC)CO
> 100 µM

Provide one value: measured TGI of CCOC(=O)c1ccc2c(c1)nc(/C=C/c1ccc(Cl)cc1)n2-c1cc(C(C)(C)C)[nH]n1
9.29 µM

Provide one value: measured TGI of Cc1ccc(C2SCC(=O)N2c2ccc(-c3ccc(-n4c(-c5ccccc5)nc5ccccc5c4=O)cc3)cc2)cc1 (stereo not given)
> 100 µM

Provide one value: measured TGI of O=C1CCCC(=O)N1n1c(Cc2ccccc2)n[nH]c1=O
> 100 µM

Provide one value: measured TGI of CCCC(N)C(=O)c1ccccc1 (stereo not given)
> 100 µM

###

Item-by-item account of TGI
- Tested on: MDA-MB-435
- method_description: NCI tumour cell line growth inhibition, 48 h

Record excerpt, results attached:
compound: COc1cccc(-n2cc(-c3nc(Nc4cc(C)[nH]n4)c4ccccc4n3)nn2)c1
TGI: 9.18 µM
--
compound: COc1c2c(cc3c1OCO3)C13C=CC(OC)CC1N(CC3)C2 (stereo unspecified)
TGI: > 100 µM
--
compound: Nc1ccccc1NC(=O)c1ccc(CN2CCC/C(=C\c3ccccn3)C2=O)cc1
TGI: 1.77 µM
--
compound: CN(C)c1ccc(-c2c(C#N)c(O)n(NS(=O)(=O)c3ccccc3)c(=O)c2C#N)cc1
TGI: > 100 µM
--
compound: O=C1CCCC(=O)N1n1c(Cc2ccccc2)n[nH]c1=O
TGI: > 100 µM

Provide one value: measured TGI of CC(C)(C)OC(=O)NCCC(=O)NC1(c2cc3ccccc3s2)CCCCC1
33.1 µM

Provide one value: measured TGI of Nc1nc2c(nnn2C2OC(CO)C(O)C2O)c(=O)[nH]1 (stereo unspecified)
> 100 µM

###

- Test system: CAKI-1 renal
- method_description: NCI tumour cell line growth inhibition, 48 h
Item-by-item account of TGI
// return numeric value only (unit: µM, not printed)

Record excerpt, results attached:
compound: CC(C)(C)OC(=O)NCCC(=O)NC1(c2cc3ccccc3s2)CCCCC1
TGI / µM: 48.6

compound: CC(=O)[CH-]C(=O)c1ccccc1.CC(=O)[CH-]C(=O)c1ccccc1.CC1(C)OCC(C2OC3OC(C)(C)OC3C2[O-])O1.CC1(C)OCC(C2OC3OC(C)(C)OC3C2[O-])O1.[Ti+4] (stereo unspecified)
TGI / µM: 79.7

compound: c1ccc(Nc2nc(-c3ccccn3)cs2)nc1
TGI / µM: 2.12

compound: O=[N+]1ON=C(c2ccccc2)C1=C1C(c2c(-c3ccccc3)no[n+]2[O-])=NON1[O-]
TGI / µM: 56.7

Let us move to another entry and its TGI.
Report the value of TGI obtained on CAKI-1 renal for O=C1CCCCC=C1C[N+](=O)[O-] .
45.8

###

Item-by-item account of TGI
- Test system: SF-295 CNS
- method_description: NCI tumour cell line growth inhibition, 48 h
// return numeric value only (unit: µM, not printed)

Record excerpt, results attached:
compound: C[C@]12CC[C@H]3[C@@H](CCC4=CC(=O)CC[C@@]43C)[C@@H]1CC[C@@H]2C(=O)COS(=O)(=O)c1ccc(Br)cc1
TGI [µM]: 47.3
--
compound: COc1ccc(-c2nn(-c3cccc(NC(=O)Nc4ccccc4)c3)cc2-c2ccncc2)cc1Cl
TGI [µM]: 6.32
--
compound: N#CC(Nc1cccc(C(F)(F)F)c1)c1ccccc1C(F)(F)F (stereo not drawn)
TGI [µM]: 22.2

Let us move to another entry and its TGI.
Report the value of TGI obtained on SF-295 CNS for CC[C@@H](C(=O)[C@H](C)[C@H](O)[C@@H](C)[C@H]1O[C@H]([C@@H](CC)C(=O)O)CC[C@H]1C)C1O[C@]2(C=C[C@@H](O)[C@]3(CC[C@@](C)([C@H]4CC[C@](O)(CC)[C@H](C)O4)O3)O2)[C@H](C)C[C@@H]1C (stereo partly drawn) .
5.54

###

- Test system: T-47D breast
- method_description: NCI tumour cell line growth inhibition, 48 h
measured_parameter: TGI

compound: c1ccc(Nc2nc(-c3ccccn3)cs2)nc1
measured_parameter: TGI
endpoint_value: > 100 µM
//
compound: COc1c2c(cc3c1OCO3)C13C=CC(OC)CC1N(CC3)C2 (stereo not drawn)
measured_parameter: TGI
endpoint_value: > 100 µM

Let us move to another entry and its TGI.
Report the value of TGI obtained on T-47D breast for COc1ccc2c(c1)C1OCCNC1CC2 (stereo not drawn) .
> 100 µM

###

- Test system: KM12 colon
- method_description: NCI tumour cell line growth inhibition, 48 h; in the data active means GI50 below about 0.43 µM; inactive means the rest
Lab note: assign the record to one of YES = active, NO = inactive

molecule: CC(=O)[CH-]C(=O)c1ccccc1.CC(=O)[CH-]C(=O)c1ccccc1.CC[C@H](/C=C/C(C)[C@H]1CCC2[C@@H]3CC=C4C[C@@H]([O-])CC[C@]4(C)C3CC[C@@]21C)C(C)C.CC[O-].[Ti+4] (stereo partly drawn)
assigned_label: NO

molecule: C=C1COC(O)(C2OCOC(C3CC(=O)NC(=O)C3)C2O)C1C (stereo not drawn)
assigned_label: YES

molecule: N.N.O=P([O-])([O-])CN(CCN(CP(=O)([O-])[O-])CP(=O)([O-])[O-])CP(=O)([O-])[O-].[Pt+2]
assigned_label: NO

Next:
Hi team, can someone confirm the assay call for CCN(CC)CCOc1ccc(/C=C2\C[C@H]3[C@H]4CC=C5C[C@@H](O)CC[C@]5(C)[C@H]4CC[C@]3(C)[C@H]2O)cc1OC ?
NO
